Molecular target: BChE from equine serum (Equus caballus)
Experiment: biochemical
Conditions: mean ± SD of three experiments
Quantity Name: pIC50
As a rule, pIC50 stands for the negative log10 of the concentration, concentration in M.

Sample answers from the record:
Input Smiles: COc1cc(O)c(-c2c(O)cc(OC)c3c2CCc2cc(O)ccc2-3)c2c1-c1ccc(O)cc1CC2
pIC50: 4.37
//
Input Smiles: COc1c(Cc2ccc(O)cc2)c(O)cc2c1-c1ccc(O)cc1CC2
pIC50: 4.47

Prompt: Entry `COc1ccc2c(ccc3c(Cc4ccc(O)cc4)c(O)cc(OC)c32)c1O` : reported pIC50 = ?
Response: 5.19

Prompt: Entry `COc1cc(Oc2c(O)cc(OC)c3c2CCc2cc(O)ccc2-3)cc2c1-c1ccc(O)cc1CC2` : reported pIC50 = ?
Response: 4.75

----------
Measured pKi on UniProt P81908 follows.
As a rule, pKi stands for the negative log10 of the concentration, concentration in M.

Input Smiles: COc1cc(O)c(Cc2ccc(O)cc2)c2ccc3c(Cc4ccc(O)cc4)c(O)ccc3c12
pKi: 5.18
//
Input Smiles: COc1cc(O)c(Cc2ccc(O)cc2)c2ccc3cc(O)ccc3c12
pKi: 5.27
//
Input Smiles: COc1cc(O)cc2c1-c1ccc(Oc3c(O)cc(OC)c4c3ccc3cc(O)ccc34)cc1CC2
pKi: 4.96

Prompt: Entry `COc1c(O)cc2ccc3c(Cc4ccc(O)cc4)c(O)ccc3c2c1OC` : reported pKi = ?
Response: 5.33

Prompt: Entry `COc1ccc2c(ccc3c(Cc4ccc(O)cc4)c(O)cc(OC)c32)c1O` : reported pKi = ?
Response: 4.85

----------
Target: AChE from electric eel (Electrophorus electricus, UniProt O42275)
Sequence (O42275 24-633): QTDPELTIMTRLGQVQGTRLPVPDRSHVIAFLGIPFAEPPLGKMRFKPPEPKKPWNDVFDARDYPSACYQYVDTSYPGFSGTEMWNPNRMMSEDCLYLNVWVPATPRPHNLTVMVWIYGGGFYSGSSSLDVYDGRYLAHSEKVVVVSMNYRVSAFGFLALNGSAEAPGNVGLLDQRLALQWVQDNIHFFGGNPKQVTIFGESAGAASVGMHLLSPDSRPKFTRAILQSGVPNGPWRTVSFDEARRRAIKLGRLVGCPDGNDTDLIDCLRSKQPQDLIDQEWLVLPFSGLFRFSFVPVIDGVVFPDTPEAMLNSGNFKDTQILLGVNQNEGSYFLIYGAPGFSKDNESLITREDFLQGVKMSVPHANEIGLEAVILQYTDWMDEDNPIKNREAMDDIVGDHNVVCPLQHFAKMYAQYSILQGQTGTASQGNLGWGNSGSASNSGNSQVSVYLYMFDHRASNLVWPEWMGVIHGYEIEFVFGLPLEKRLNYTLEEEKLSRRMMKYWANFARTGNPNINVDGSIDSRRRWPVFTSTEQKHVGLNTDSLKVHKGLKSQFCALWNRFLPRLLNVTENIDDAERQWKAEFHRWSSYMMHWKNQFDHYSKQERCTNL
Experiment: biochemical
Details: read-out: % of inhibition at 25 μg/mL AChE
Values of inhibition at 25 µg/mL greater than or equal to 6% map to Met; values below map to Not met.

Molecule: COc1cc(C2COc3cc(OC)c4c(c3C2O)CCc2cc(O)ccc2-4)ccc1O (stereo not drawn)
System Tested: AChE from electric eel (Electrophorus electricus, UniProt O42275)
Assigned Category: Not met

Prompt: inhibition at 25 µg/mL >= 6% for `COc1c(O)cc2ccc3c(Cc4ccc(O)cc4)c(O)ccc3c2c1OC` ?
Response: Met

Prompt: inhibition at 25 µg/mL >= 6% for `COc1cc(O)c(-c2c(O)cc(OC)c3c2CCc2cc(O)ccc2-3)c2c1-c1ccc(O)cc1CC2` ?
Response: Met

Prompt: inhibition at 25 µg/mL >= 6% for `COc1cc(O)cc(/C=C\c2cccc(O)c2)c1` ?
Response: Not met

Prompt: inhibition at 25 µg/mL >= 6% for `COc1cc(Oc2c(O)cc(OC)c3c2ccc2cc(O)ccc23)cc2c1-c1ccc(O)cc1CC2` ?
Response: Not met

Prompt: inhibition at 25 µg/mL >= 6% for `COc1cc(O)cc(CCc2cccc(O)c2)c1Cc1ccc(O)cc1` ?
Response: Not met

----------
Biological target: BChE from equine serum (Equus caballus, UniProt P81908)
Sequence (P81908 whole entry): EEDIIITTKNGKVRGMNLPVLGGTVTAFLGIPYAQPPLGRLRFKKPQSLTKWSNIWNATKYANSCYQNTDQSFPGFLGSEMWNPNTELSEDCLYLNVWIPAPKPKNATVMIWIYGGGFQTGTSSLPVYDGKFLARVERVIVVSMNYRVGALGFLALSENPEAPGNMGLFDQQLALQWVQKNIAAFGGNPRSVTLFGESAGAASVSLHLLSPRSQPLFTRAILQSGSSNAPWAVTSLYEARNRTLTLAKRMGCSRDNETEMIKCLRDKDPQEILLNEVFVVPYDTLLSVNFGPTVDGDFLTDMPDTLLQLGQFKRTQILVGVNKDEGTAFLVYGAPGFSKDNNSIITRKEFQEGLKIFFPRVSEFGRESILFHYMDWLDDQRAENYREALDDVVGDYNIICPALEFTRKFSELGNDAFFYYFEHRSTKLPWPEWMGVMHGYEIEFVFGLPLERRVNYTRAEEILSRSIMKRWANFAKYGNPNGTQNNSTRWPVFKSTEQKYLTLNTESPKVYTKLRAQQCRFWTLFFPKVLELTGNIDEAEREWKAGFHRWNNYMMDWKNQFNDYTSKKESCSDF
Test: biochemical
Conditions: mean ± SD of three experiments
Parameter: pIC50. Scope: all listed entries.
As a rule, pIC50 stands for the negative log10 of the concentration, concentration in M.

Sample answers from the record:
Input Smiles: COc1cc(Oc2c(O)cc(OC)c3c2ccc2cc(O)ccc23)cc2c1-c1ccc(O)cc1CC2
System Tested: BChE from equine serum (Equus caballus, UniProt P81908)
Quantity Name: pIC50
Reported Value: 4.92
//
Input Smiles: COc1cccc(CCc2cc(O)cc(OC)c2Cc2ccc(O)cc2)c1
System Tested: BChE from equine serum (Equus caballus, UniProt P81908)
Quantity Name: pIC50
Reported Value: 4.47

Prompt: Entry `COc1c(O)cc2ccc3c(Cc4ccc(O)cc4)c(O)ccc3c2c1OC` : reported pIC50 = ?
Response: 5.28

----------
Parameter: inhibition at 25 µg/mL. Scope: all listed entries.
Biological target: AChE from electric eel (Electrophorus electricus, UniProt O42275)
Assay: biochemical
Conditions: read-out: % of inhibition at 25 μg/mL AChE

Compound: COc1c(Cc2ccc(O)cc2)c(O)c(Cc2ccc(O)cc2)c2c1-c1ccc(O)cc1CC2 [Compound 11]
Reported Value: 20.1%

Prompt: Lab note: need inhibition at 25 µg/mL for COc1cc(Oc2c(O)cc(OC)c3c2CCc2cc(O)ccc2-3)cc2c1-c1ccc(O)cc1CC2 [Compound 15, blestrin A] on AChE from electric eel (Electrophorus electricus, UniProt O42275), anyone have it?
Response: 8.4%

Prompt: Lab note: need inhibition at 25 µg/mL for COc1cc(O)c(Cc2ccc(O)cc2)c2ccc3c(Cc4ccc(O)cc4)c(O)ccc3c12 [Compound 12] on AChE from electric eel (Electrophorus electricus, UniProt O42275), anyone have it?
Response: 16.1%
